// data source = ChEMBL document CHEMBL1131717

Dear all, this message contains IC50 results, target or system 1-phosphatidylinositol 4,5-bisphosphate phosphodiesterase gamma-1 (Homo sapiens).
One number for each entry, in µM.

Could I get IC50 for every one of these entries?
1. COc1cc(/C=C\C(=O)OC[C@@]23CC[C@@]4(C(=O)O)CCC(C)(C)C[C@H]4C2=CCC2[C@@]4(C)CC[C@H](O)C(C)(C)C4CC[C@]23C)ccc1O (some centres not stated)
2. COc1cc(/C=C/C(=O)OC[C@@]23CC[C@@]4(C(=O)O)CCC(C)(C)C[C@H]4C2=CCC2[C@@]4(C)CC[C@H](O)C(C)(C)C4CC[C@]23C)ccc1O (some centres not stated)

result:
44.6
35.7
